Test: solvent given as SMILES
Details: in CC(=O)O
measured-parameter: absorption maximum (nm)

>>> test_value("Cc1cc(Br)cn(Cn2cccc(C)c2=O)c1=N")
310
>>> test_value("CCN(CC)c1ccc(/N=N/c2cc3c(=O)[nH][nH]c(=O)c3cc2[N+](=O)[O-])c(NC(C)=O)c1")
532
>>> test_value("COc1ccc(C(=O)/C=C/c2ccc(N(C)C)cc2)cc1OC")
426
>>> test_value("CCN(CC)c1cc(NC(C)=O)c(/N=N/c2cc3c(=O)[nH][nH]c(=O)c3cc2[N+](=O)[O-])cc1OC")
556

----------
Assay: solvent given as SMILES
Conditions: in ClCCl
absorption maximum listing for selected molecules.
measured-parameter: absorption maximum

>>> test_value("N#Cc1cc(-c2ccc(/C=C/c3ccc(N(c4ccccc4)c4ccccc4)cc3)c(C#N)c2)ccc1/C=C/c1ccc(N(c2ccccc2)c2ccccc2)cc1")
"428 nm"
>>> test_value("CCCOc1ccc(/C=C/C=C/C=C/c2ccc([N+](=O)[O-])cc2)cc1")
"421 nm"
>>> test_value("c1ccc(-c2c3ccccc3c(-c3ccccc3)c3cc4ccccc4cc23)cc1")
"493 nm"
>>> test_value("CC1=CC(C)=[N+]2C1=Cc1c3ccccc3c(-c3[nH]c(C)cc3C)n1[B-]2(F)F")
"609 nm"
>>> test_value("CCCCn1c(-c2ccc(-c3nnc(-c4ccccc4)o3)cc2)nc(-c2ccccc2)c1-c1ccccc1")
"339 nm"
>>> test_value("CC(C)c1cccc(C(C)C)c1N1C(c2ccccc2)=Cc2ccc3ccccc3[n+]2[B-]1(F)F")
"447 nm"
>>> test_value("C(=C\\c1cnccn1)/c1ccc(N(c2ccccc2)c2ccccc2)cc1")
"394 nm"
>>> test_value("COc1ccc(-c2cc3c(ccc4sc5ccc6sc(-c7ccc(C#N)cc7)cc6c5c43)s2)cc1")
"383 nm"
>>> test_value("C(=C/c1ccc(N(c2ccccc2)c2ccccc2)cc1)/c1ccc(N(c2ccccc2)c2ccccc2)cc1")
"370 nm"
>>> test_value("CC1=[N+]2C(=C(c3c4ccccc4c(-c4ccccc4)c4ccccc34)c3ccc(C)n3[B-]2(F)F)C=C1")
"518 nm"
>>> test_value("[O-][n+]1c(/C=C/c2ccc3ccccc3c2)nc(N2CCOCC2)c2c1CCCC2")
"400 nm"
>>> test_value("c1ccc(N(c2ccccc2)c2ccc3c4cccc5c(N(c6ccccc6)c6ccccc6)ccc(c6cccc2c63)c54)cc1")
"490 nm"
>>> test_value("COc1cccc(OC)c1-c1c2ccc(=[N+]3CCN(C(=O)OC(C)(C)C)CC3)cc-2oc2cc(N3CCN(C(=O)OC(C)(C)C)CC3)ccc12")
"555 nm"
>>> test_value("COC(=O)C1=C(C(=O)OC)C2=C[C@H]3c4ccccc4[C@]2([Se]1)c1ccccc13")
"370 nm"
>>> test_value("CCCCCCn1c(=O)c2c3nc4ccccc4nc3c3c(=O)n(CCCCCC)c(=O)c3c2c1=O")
"404 nm"
>>> test_value("CCCCn1c2ccc(/C=C(\\C#N)c3ccc([N+](=O)[O-])cc3)cc2c2cc(Cn3c(-c4ccc5c(c4)c4ccccc4n5CCCC)nc4ccccc43)ccc21")
"417 nm"
>>> test_value("F[B-]1(F)OC(c2ccccc2)=Cc2cc3[n+](c[n+]21)[B-](F)(F)OC(c1ccccc1)=C3")
"475 nm"
